- targetEntity: SMARCA4 (Homo sapiens)
- Construct: SMARCA2/SMARCA4 protein degradation selectivity in MV4-11 cells; endogenous in cells; host or cells: MV4-11
- experimentDescription: SMARCA4 Western blot degradation in MV4-11 cells
- Assay type: cell-based
- conditionSet: MV4-11, MV4-11 cells, 24 h; read-out: SMARCA4 MSD MV411 degradation 24 h: average Dmax %
The reader will find reported Dmax values listed item by item below.

>  <molecule>
Cn1nccc1-c1ccc(CNC(=O)[C@@H]2C[C@@H](O)CN2C(=O)[C@@H](NC(=O)[C@H]2CC[C@@H](c3ccc(-c4cnc(N5CCN6c7cc(-c8ccccc8O)nnc7NC[C@H]6C5)nc4)cc3)CC2)C(C)(C)C)cc1 (single isomer, unassigned) [I-88]

>  <Dmax>
> 90%

$$$$
>  <molecule>
C#Cc1ccc([C@H](C)NC(=O)[C@@H]2C[C@@H](O)CN2C(=O)[C@@H](NC(=O)N2CC3(CC(N4CCC(N5CCC(N6CCc7[nH]c8nnc(-c9ccccc9O)cc8c7[C@H]6C)CC5)CC4)C3)C2)C(C)(C)C)cc1 [I-212]

>  <Dmax>
< 50%

$$$$
>  <molecule>
C#Cc1ccc(CNC(=O)[C@@H]2C[C@@H](O)CN2C(=O)[C@@H](NC(=O)N2CC3(CC(N4CCN([C@H]5CC[C@@H](N6CCc7[nH]c8nnc(-c9ccccc9O)cc8c7[C@H]6C)CC5)CC4)C3)C2)C(C)(C)C)cc1 [I-187]

>  <Dmax>
70 to 90%

$$$$
>  <molecule>
Cc1ncsc1-c1ccc(CNC(=O)[C@@H]2C[C@@H](O)CN2C(=O)C(c2cc(OCCN3CCC(N4CCC(c5cnc(N6CCc7[nH]c8nnc(-c9ccccc9O)cc8c7[C@H]6C)nc5)CC4)CC3)no2)C(C)C)cc1 (some centres unmarked) [I-36]

>  <Dmax>
> 90%

$$$$
>  <molecule>
C#Cc1ccc(CNC(=O)[C@@H]2C[C@@H](O)CN2C(=O)[C@@H](NC(=O)[C@H]2CCC3(CC2)C[C@H](N2CCC(c4cnc(N5CCN6c7cc(-c8ccccc8O)nnc7NC[C@H]6C5)nc4)CC2)C3)C(C)(C)C)c(F)c1 (single isomer, unassigned) [I-97]

>  <Dmax>
< 50%

$$$$
>  <molecule>
Cc1ncsc1-c1ccc(CNC(=O)[C@@H]2C[C@@H](O)CN2C(=O)[C@@H](NC(=O)C2(F)CC2)C(C)(C)C)c(OCCCCN2CCN(c3cnc(N4CCN5c6cc(-c7ccccc7O)nnc6NC[C@H]5C4)nc3)CC2)c1 (single isomer, unassigned) [I-45]

>  <Dmax>
> 90%

$$$$
>  <molecule>
C#Cc1ccc(CNC(=O)[C@@H]2C[C@@H](O)CN2C(=O)[C@@H](NC(=O)N2CCC(N3CCC(N4CC5(CC(N6CCc7[nH]c8nnc(-c9ccccc9O)cc8c7[C@H]6C)C5)C4)CC3)CC2)C(C)(C)C)cc1 [I-208]

>  <Dmax>
< 50%

$$$$
>  <molecule>
C#Cc1ccc(CNC(=O)[C@@H]2C[C@@H](O)CN2C(=O)[C@@H](NC(=O)N2CCN(C[C@H]3CC[C@H](N4CCC(N5CCN6c7cc(-c8ccccc8O)nnc7NC[C@H]6C5)CC4)CC3)CC2)C(C)(C)C)cc1 [I-254]

>  <Dmax>
< 50%

$$$$

###

- targetEntity: SMARCA4 (Homo sapiens, UniProt P51532)
- Construct: SMARCA2/SMARCA4 protein degradation selectivity in MV4-11 cells; endogenous in cells; host or cells: MV4-11
- Sequence (P51532 whole entry): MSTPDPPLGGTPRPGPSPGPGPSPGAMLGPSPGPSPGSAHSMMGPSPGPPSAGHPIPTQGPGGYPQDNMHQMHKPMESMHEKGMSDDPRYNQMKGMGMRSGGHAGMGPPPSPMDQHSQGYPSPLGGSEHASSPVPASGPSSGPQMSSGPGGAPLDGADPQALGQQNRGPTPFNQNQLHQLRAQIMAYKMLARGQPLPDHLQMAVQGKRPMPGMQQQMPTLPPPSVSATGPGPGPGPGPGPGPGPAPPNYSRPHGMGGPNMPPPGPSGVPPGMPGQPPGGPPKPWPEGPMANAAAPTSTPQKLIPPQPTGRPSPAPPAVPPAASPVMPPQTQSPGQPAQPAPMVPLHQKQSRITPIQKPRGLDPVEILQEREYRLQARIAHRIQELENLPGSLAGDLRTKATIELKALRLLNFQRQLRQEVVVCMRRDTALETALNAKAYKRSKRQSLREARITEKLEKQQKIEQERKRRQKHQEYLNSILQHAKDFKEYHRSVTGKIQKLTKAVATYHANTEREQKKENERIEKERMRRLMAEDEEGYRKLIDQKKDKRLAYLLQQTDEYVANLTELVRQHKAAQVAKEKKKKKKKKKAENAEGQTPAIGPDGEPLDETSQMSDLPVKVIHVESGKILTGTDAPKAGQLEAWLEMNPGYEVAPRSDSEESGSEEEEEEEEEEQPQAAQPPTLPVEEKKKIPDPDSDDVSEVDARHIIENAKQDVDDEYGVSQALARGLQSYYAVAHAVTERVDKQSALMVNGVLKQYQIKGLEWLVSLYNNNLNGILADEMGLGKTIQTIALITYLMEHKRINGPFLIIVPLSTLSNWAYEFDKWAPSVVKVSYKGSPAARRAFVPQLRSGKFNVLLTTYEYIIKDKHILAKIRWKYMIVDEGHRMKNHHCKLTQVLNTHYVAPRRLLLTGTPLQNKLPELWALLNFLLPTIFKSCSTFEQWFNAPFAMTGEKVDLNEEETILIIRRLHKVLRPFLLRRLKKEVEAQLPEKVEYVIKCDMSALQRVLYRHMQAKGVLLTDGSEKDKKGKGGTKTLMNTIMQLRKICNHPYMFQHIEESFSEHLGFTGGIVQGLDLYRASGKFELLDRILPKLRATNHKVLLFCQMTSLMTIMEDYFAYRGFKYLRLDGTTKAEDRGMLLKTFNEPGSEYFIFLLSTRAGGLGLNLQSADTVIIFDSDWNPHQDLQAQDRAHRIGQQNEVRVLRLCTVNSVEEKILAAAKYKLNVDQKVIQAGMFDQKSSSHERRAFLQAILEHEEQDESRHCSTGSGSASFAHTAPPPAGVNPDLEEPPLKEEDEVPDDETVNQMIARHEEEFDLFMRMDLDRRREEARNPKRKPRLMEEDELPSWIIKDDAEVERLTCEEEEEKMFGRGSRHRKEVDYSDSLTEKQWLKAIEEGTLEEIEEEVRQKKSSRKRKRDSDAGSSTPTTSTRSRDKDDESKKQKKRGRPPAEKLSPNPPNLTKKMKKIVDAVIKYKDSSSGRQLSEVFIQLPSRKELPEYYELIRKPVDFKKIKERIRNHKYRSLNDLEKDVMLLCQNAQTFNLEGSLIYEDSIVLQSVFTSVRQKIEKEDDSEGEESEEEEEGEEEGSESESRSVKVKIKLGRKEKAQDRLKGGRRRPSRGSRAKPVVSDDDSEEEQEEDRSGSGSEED
- experimentDescription: SMARCA4 Western blot degradation in MV4-11 cells
- Assay type: cell-based
- conditionSet: MV4-11 cells, 24 h; read-out: SMARCA4 MSD MV411 degradation 24 h: Mean external-Abs DC50

>  <compound>
C#Cc1ccc(CNC(=O)[C@@H]2C[C@@H](O)CN2C(=O)[C@@H](NC(=O)[C@H]2CC[C@@H](c3ccc(-c4cnc(N5CCN6c7cc(-c8ccccc8O)nnc7NC[C@H]6C5)nc4)cc3)CC2)C(C)(C)C)cc1 [I-24]

>  <targetEntity>
SMARCA4 (Homo sapiens, UniProt P51532)

>  <DC50>
1 to 10 nM

$$$$
>  <compound>
C#Cc1ccc(CNC(=O)[C@@H]2C[C@@H](O)CN2C(=O)[C@@H](NC(=O)[C@H]2CCC3(CC2)C[C@H](N2CCN(c4cnc(N5CCN6c7cc(-c8ccccc8O)nnc7NC[C@H]6C5)nc4)CC2)C3)C(C)(C)C)c(OC)c1 (single isomer, unassigned) [I-195]

>  <targetEntity>
SMARCA4 (Homo sapiens, UniProt P51532)

>  <DC50>
10 to 100 nM

$$$$
>  <compound>
C#Cc1ccc(CNC(=O)[C@@H]2C[C@@H](O)CN2C(=O)[C@@H](NC(=O)[C@H]2CCC3(CC2)C[C@H](N2CCC(c4cnc(N5CCN6c7cc(-c8ccccc8O)nnc7NC[C@H]6C5)nc4)CC2)C3)C(C)(C)C)c(Cl)c1 (single isomer, unassigned) [I-98]

>  <targetEntity>
SMARCA4 (Homo sapiens, UniProt P51532)

>  <DC50>
> 100 nM

$$$$
>  <compound>
C#Cc1ccc(CNC(=O)[C@@H]2C[C@@H](O)CN2C(=O)[C@@H](NC(=O)[C@H]2CCC3(CC2)C[C@H](N2CCC(N4CC5(CC(N6CCN7c8cc(-c9ccccc9O)nnc8NC[C@H]7C6)C5)C4)CC2)C3)C(C)(C)C)c(Cl)c1 (single isomer, unassigned) [I-238]

>  <targetEntity>
SMARCA4 (Homo sapiens, UniProt P51532)

>  <DC50>
> 100 nM

$$$$

###

The reader will find reported Dmax values listed item by item below.
- targetEntity: SMARCA2 (Homo sapiens)
- experimentDescription: MSD SMARCA2 degradation in A549 cell line
- Format: cell-based
- conditionSet: A549, A549 cells, 24 h
valueType: Dmax

>  <compound>
C#Cc1ccc(CNC(=O)[C@@H]2C[C@@H](O)CN2C(=O)[C@@H](NC(=O)N2CCC(N3CC4(CC(N5CCC(N6CCc7[nH]c8nnc(-c9ccccc9O)cc8c7[C@H]6C)CC5)C4)C3)CC2)C(C)(C)C)cc1

>  <targetEntity>
SMARCA2 (Homo sapiens)

>  <assayValue>
70 to 90%

$$$$
>  <compound>
Cc1ncsc1-c1ccc(CNC(=O)[C@@H]2C[C@@H](O)CN2C(=O)[C@@H](NC(=O)C2(F)CC2)C(C)(C)C)c(O[C@H]2CC[C@H](N3CCC(c4cnc(N5CCc6[nH]c7nnc(-c8ccccc8O)cc7c6[C@@H]5C)nc4)CC3)CC2)c1 (single isomer, unassigned)

>  <targetEntity>
SMARCA2 (Homo sapiens)

>  <assayValue>
50 to 70%

$$$$
>  <compound>
C#Cc1cc(Cl)c(CNC(=O)[C@@H]2C[C@@H](O)CN2C(=O)[C@@H](NC(=O)[C@H]2CC3(C2)C[C@H](N2CCC(N4CCC(N5CCN6c7cc(-c8ccccc8O)nnc7NC[C@H]6C5)CC4)CC2)C3)C(C)(C)C)c(OC)c1 (single isomer, unassigned)

>  <targetEntity>
SMARCA2 (Homo sapiens)

>  <assayValue>
< 50%

$$$$
>  <compound>
C#Cc1ccc(CNC(=O)[C@@H]2C[C@@H](O)CN2C(=O)[C@@H](NC(=O)N2CCN(CC3CCN(c4cnc(N5CCN6c7cc(-c8ccccc8O)nnc7NC[C@H]6C5)nc4)CC3)CC2)C(C)(C)C)cc1

>  <targetEntity>
SMARCA2 (Homo sapiens)

>  <assayValue>
> 90%

$$$$

###

- targetEntity: SMARCA2 (Homo sapiens, UniProt P51531)
- Sequence (P51531 whole entry): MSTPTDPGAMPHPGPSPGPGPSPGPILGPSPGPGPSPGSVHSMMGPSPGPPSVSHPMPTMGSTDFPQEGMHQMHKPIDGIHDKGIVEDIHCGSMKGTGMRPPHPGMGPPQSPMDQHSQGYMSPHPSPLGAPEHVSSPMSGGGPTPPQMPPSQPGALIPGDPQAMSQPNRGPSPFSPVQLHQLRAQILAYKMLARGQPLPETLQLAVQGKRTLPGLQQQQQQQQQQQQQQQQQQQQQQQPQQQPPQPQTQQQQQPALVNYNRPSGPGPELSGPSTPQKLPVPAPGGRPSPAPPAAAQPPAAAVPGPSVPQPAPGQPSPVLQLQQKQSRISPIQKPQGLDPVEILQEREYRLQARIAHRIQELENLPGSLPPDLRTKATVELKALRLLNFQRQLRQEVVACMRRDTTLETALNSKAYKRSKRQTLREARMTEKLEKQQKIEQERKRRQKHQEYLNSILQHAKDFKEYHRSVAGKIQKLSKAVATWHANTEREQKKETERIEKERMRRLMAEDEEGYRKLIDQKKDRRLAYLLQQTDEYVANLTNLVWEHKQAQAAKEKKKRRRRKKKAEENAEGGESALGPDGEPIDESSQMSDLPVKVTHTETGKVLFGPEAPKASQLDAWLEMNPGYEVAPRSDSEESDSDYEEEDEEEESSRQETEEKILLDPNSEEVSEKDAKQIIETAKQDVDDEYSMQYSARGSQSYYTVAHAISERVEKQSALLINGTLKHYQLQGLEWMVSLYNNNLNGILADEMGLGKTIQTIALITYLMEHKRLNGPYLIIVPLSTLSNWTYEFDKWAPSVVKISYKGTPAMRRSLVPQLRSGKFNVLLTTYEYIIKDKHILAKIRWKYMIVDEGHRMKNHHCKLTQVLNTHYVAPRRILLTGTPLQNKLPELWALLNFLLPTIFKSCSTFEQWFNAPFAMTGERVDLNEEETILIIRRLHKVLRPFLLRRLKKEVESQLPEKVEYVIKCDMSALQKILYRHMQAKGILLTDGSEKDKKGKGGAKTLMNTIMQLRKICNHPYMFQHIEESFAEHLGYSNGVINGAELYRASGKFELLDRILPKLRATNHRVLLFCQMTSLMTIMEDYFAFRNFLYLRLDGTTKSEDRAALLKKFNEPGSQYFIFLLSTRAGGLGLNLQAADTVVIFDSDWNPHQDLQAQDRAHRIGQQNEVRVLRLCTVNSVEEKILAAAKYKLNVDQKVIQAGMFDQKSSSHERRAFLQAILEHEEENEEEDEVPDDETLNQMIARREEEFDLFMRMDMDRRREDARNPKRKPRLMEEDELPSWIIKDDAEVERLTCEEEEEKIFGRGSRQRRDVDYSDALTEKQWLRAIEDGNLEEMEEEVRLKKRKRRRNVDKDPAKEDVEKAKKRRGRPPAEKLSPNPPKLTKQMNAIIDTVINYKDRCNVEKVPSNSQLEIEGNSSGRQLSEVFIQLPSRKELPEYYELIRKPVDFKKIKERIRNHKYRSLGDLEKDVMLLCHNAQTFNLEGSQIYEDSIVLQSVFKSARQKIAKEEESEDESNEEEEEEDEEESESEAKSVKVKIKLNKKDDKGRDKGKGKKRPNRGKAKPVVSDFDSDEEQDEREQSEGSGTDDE
- experimentDescription: SMARCA2 Western blot degradation in MV4-11 cells
- Format: cell-based
- Design: SMARCA2/SMARCA4 protein degradation selectivity in MV4-11 cells; endogenous in cells; host or cells: MV4-11
- conditionSet: SMARCA2/4 selectivity, MV4-11 cells

>  <smilesText>
C#Cc1ccc(CNC(=O)[C@@H]2C[C@@H](O)CN2C(=O)[C@@H](NC(=O)N2CC3(CC(N4CCC(c5cnc(N6CCc7[nH]c8nnc(-c9ccccc9O)cc8c7[C@H]6C)nc5)CC4)C3)C2)C(C)(C)CCO)cc1

>  <Selectivity in MV411>
C (C (10-100 fold))

$$$$
>  <smilesText>
C#Cc1ccc([C@H](C)NC(=O)[C@@H]2C[C@@H](O)CN2C(=O)[C@@H](NC(=O)N2CC3(C2)CN(C2CCN(c4cnc(N5CCc6[nH]c7nnc(-c8ccccc8O)cc7c6[C@H]5C)nc4)CC2)C3)C(C)(C)C)cc1

>  <Selectivity in MV411>
C (C (10-100 fold))

$$$$

###

- targetEntity: SMARCA2 (Homo sapiens, UniProt P51531)
- experimentDescription: SMARCA2 Western blot degradation in MV4-11 cells
- Assay type: cell-based
- Parameters: SMARCA2/SMARCA4 protein degradation selectivity in MV4-11 cells; endogenous in cells; host or cells: MV4-11
- conditionSet: MV4-11 cells, 24 h; read-out: SMARCA2 MSD MV411 degradation 24 h: Mean external-Abs DC50
valueType: DC50

>  <compound>
C#Cc1ccc(CNC(=O)[C@@H]2C[C@@H](O)CN2C(=O)[C@@H](NC(=O)N2CCC(N3CCC(N4CC5(CC(N6CCc7[nH]c8nnc(-c9ccccc9O)cc8c7[C@H]6C)C5)C4)CC3)CC2)C(C)(C)C)cc1

>  <assayValue>
> 100 nM

$$$$
>  <compound>
Cc1ncsc1-c1ccc(CNC(=O)[C@@H]2C[C@@H](O)CN2C(=O)C(c2cc(OCCCN3CCC(c4cnc(N5CCN6c7cc(-c8ccccc8O)nnc7NC[C@H]6C5)nc4)CC3)no2)C(C)C)cc1 (single isomer, unassigned)

>  <assayValue>
< 1 nM

$$$$
>  <compound>
C#Cc1ccc(CNC(=O)[C@@H]2C[C@@H](O)CN2C(=O)[C@@H](NC(=O)CCCCCCCN2CCC(N3CC4(CC(N5CCN6c7cc(-c8ccccc8O)nnc7NC[C@H]6C5)C4)C3)CC2)C(C)(C)C)cc1

>  <assayValue>
1 to 10 nM

$$$$
>  <compound>
Cc1ncsc1-c1ccc(CNC(=O)[C@@H]2C[C@@H](O)CN2C(=O)[C@@H](NC(=O)C2(F)CC2)C(C)(C)C)c(O[C@H]2CC[C@@H](N3CCC(c4cnc(N5CCc6[nH]c7nnc(-c8ccccc8O)cc7c6[C@H]5C)nc4)CC3)CC2)c1 (single isomer, unassigned)

>  <assayValue>
10 to 100 nM

$$$$

Reference for the values: patent US20250170248A1
